Reference for the values: the array DNA melting data of Ke et al. (doi:10.1101/2024.01.08.574731)

assay: melting temperature; fluorescence melt of hairpins on a sequencing array, two-state fit, raised by 9.35 °C to match UV melts; conditions: sodium 0.088 M
Mark each entry Met if its Tm sits below 60 °C, and Not met for all others.

Task: Please determine if GGCTTCGAAAGAACAGCC ((((((....)))..))) is below 60 °C in terms of Tm.
Output: Met

Task: And for CGTCGGCGGAAACGCACG (((..(((....)))))) ?
Output: Met

Task: Same lookup for GCGGTATGCCGC ((((....)))) , please.
Output: Not met

Task: Input GATCACATAGTGATC ((((((...))))))
Output: Not met

Task: Now this one: GGACTAGGAAACCAGTCC (((((.(....).)))))
Output: Met

Task: Can you check GCGCGACGAAAGTCACGC (((.(((....))).))) next?
Output: Not met

Task: Next record, please: GATCATCTTATGATC ((((((...))))))
Output: Met

Task: Try this sequence next: GGAGATGGAAACGTCTCC (((((.(....).)))))
Output: Met

Task: Next record, please: GTCGGTGGAAACACTGAC (((.(((....))).)))
Output: Met

Task: Lookup GATCGAGCACTCGATC ((((((....))))))
Output: Met

Task: Quick one: GTCATGGGAAACCACGAC (((.(((....))).)))
Output: Met

###

experiment: folding enthalpy; higher = less favourable; fluorescence melt of hairpins on a sequencing array, two-state fit; conditions: sodium 0.088 M
Quick rule: folding enthalpy of at least -20 kcal/mol means TRUE, below that means FALSE.

Task: Does the sequence GCGGGGCGAAAGCACGGC ((.(.((....)).).)) have recorded folding enthalpy that is -20 kcal/mol or more?
Output: TRUE

Task: Record: GTCTCCGAAAGGAAGAC ((((((....))).)))
Output: FALSE

Task: Also check ATGGTGAAAACCAT (((((....)))))
Output: FALSE

Task: Queued: GCGGCGCACCGC ((((....))))
Output: TRUE

Task: Repeat with GACGCGGGAAACCGCATC ((.((((....)))).))
Output: TRUE

Task: How about this sequence: GATCTCCCCAGAGATC ((((((....))))))
Output: FALSE

Task: // same read-out, input: GCCCAGCGAAAGCCGAGC ((.(.((....)).).))
Output: TRUE

Task: Moving on to the next sequence: GAAGGACCGAAAGGTTTC (((..(((....))))))
Output: TRUE

Task: Proceed to GCTCTGCGAAAGCCGAGC ((((.((....)).))))
Output: FALSE

Task: Let us now turn to GAGAGGGGAAACCCTTTC ((.((((....)))).))
Output: TRUE

Task: Likewise for GGGGATGGAAACGTCTCC ((.((.(....).)).)) ?
Output: FALSE

###

For each record, write down the corresponding Tm.
test: melting temperature; fluorescence melt of hairpins on a sequencing array, two-state fit, raised by 9.35 °C to match UV melts; settings: sodium 0.088 M
Response body: numeric value in °C, unit text excluded.

Task: Can you share its Tm? I mean this sequence: GATGCGGGAAACTGCGTC ((.((.(....).)).))
Output: 44.2

Task: Would you mind doing GATCGGAATCCGATC ((((((...)))))) as well?
Output: 53.5

Task: Can you check GATCTAAGCTAGATC ((((((...)))))) next?
Output: 39.5

Task: Field entry: GGACTCACGAAAGTGTCC (((..(((....))))))
Output: 41.5

Task: Likewise for GCGGAACGAAAGTTGCGC (((.(((....))).))) ?
Output: 67.9

Task: Query GACACTGGAAACAGTACC (..((((....))))..) next
Output: 24.2

Task: Moving on to GCAGCTGGAAACAGCTAC (.(((((....))))).)
Output: 42.1

Task: Query GAATGGCGAAAGCCTTTC (((.(((....))).))) next
Output: 47.2

Task: Moving on to GGCATACGAAAGTAGCC (((.(((....))))))
Output: 52.7

Task: Please answer likewise for GGTTCTGGAAACAGGACC (((.(((....))).)))
Output: 50.6

Task: Same thing, different sequence: GAGTGCGAAAGCAACCTC ((((((....)))..)))
Output: 37.7

Task: Queued: GCACTTCGAAAGAAATGC (((.(((....))).)))
Output: 42.3

Task: Next sequence up: GGAAACGGAAACATTTCC (((((.(....).)))))
Output: 31.3

Task: Please do the same for GAAGTGGGAAACTACTTC (((((.(....).))))) as well.
Output: 43.1

Task: // same read-out, input: GTTTTATCGAAAGATAAC (((..(((....))))))
Output: 29.8

Task: Again, but for CGGTGCCGGAAACGGCCG (((..(((....))))))
Output: 47.5

Task: Again, but for GGGGGCGAAAGCCCGCCC ((((((....)))..)))
Output: 55.6

Task: // query: GATCCATGCGTGGATC ((((((....))))))
Output: 56.8

Task: Repeat with GCGTTCGTACGC ((((....))))
Output: 58.3

Task: Likewise for GCTAGACCGAAAGGTAGC (((..(((....)))))) ?
Output: 44.1

Task: Another sequence to look at: GATGGGGGAAACCCCACC (.(((((....))))).)
Output: 39.9

Task: // query: GGGGCTACGAAAGTACCC (((..(((....))))))
Output: 48

Task: Try the sequence GCGAGAGGAAACTTTCGC ((((.((....)).))))
Output: 48.8

Task: How about GAATATGGAAACATGTTC (((.(((....))).))) ?
Output: 37.6

Task: Another sequence to check: GTTGTGGGAAACTACAGC (.(((.(....).))).)
Output: 32

###

experiment: folding enthalpy; higher = less favourable; fluorescence melt of hairpins on a sequencing array, two-state fit; conditions: sodium 0.088 M
Consider the following sequences; for each one, report its folding enthalpy.
Give the value, in units of kcal/mol, as a plain number.

Task: Need folding enthalpy, item GATCGAAGAATCGATC ((((((....))))))
Output: -28.4

Task: Similarly, GTCTTTGCGAAAGCAGAC (((..(((....)))))) ?
Output: -16.3

Task: GATAGACGAAAGTCGATC (((.(((....))).))) ?
Output: -25.9

Task: Also need GTAGATGGAAACATCTGC (.(((((....))))).) , thanks.
Output: -20.8

Task: Continue with GGGTGGACGAAAGTCCCC (((..(((....))))))
Output: -12.4

Task: Let us now turn to GCGCGACGAAAGTCACGC (((.(((....))).)))
Output: -36.3

Task: Could you do the same for GCTTTGCGAAAGCAGAGC (((.(((....))).))) , please?
Output: -43.8

Task: // query: GGCGTTGGAAACAGCGCC ((((.((....)).))))
Output: -52.1

Task: Record: GCGACCGGTCGC ((((....))))
Output: -55.6

Task: Then what about the sequence GAACTACGAAAGTACTTC (((.(((....))).))) ?
Output: -9.53

Task: Try this sequence too: GAGACAGGAAACTGTCCC (.(((((....))))).)
Output: -13

Task: Can you check GTCTAGCCGAAAGGCGAC (((..(((....)))))) next?
Output: -10.8

Task: Ok, now GTCGGAGGAAACTCTGGC (.(.(((....))).).)
Output: -28.2

Task: What do you have for GGGCGAACGAAAGTTCCC (((..(((....)))))) ?
Output: -15.4

Task: Also, GACTACGAAAGTAAAGTC ((((((....)))..))) please.
Output: -23.3

Task: What do we get for GATCAGCGAAAGCTTATC (((.(((....))).))) ?
Output: -20.2

Task: Likewise for GTCGCGCGAAAGCGGAC (((.(((....)))))) ?
Output: -15.4

Task: And then GCTTCTACGAAAGTAAGC (((..(((....)))))) , what is it?
Output: -14

Task: // query: GGGCTCGAAAGAGCGCCC ((((((....)))..)))
Output: -10.7

Task: Next entry: GATCTCTTTAGAGATC ((((((....))))))
Output: -44.9

Task: Consider next the sequence GATCCGCCGCCGGATC ((((((....)))))) in the same way.
Output: -42.4

Task: Also check GGCCCTCGAAAGAGTGCC (((.(((....))).)))
Output: -44.1

Task: One more sequence: GTGATGGGAAACCATTAC ((.((((....)))).))
Output: -31.1

Task: Here is the next sequence: GCTACACCGAAAGGTAGC (((..(((....))))))
Output: -22.7

Task: Can you handle GGCATCGAAAGATTGCC ((((((....))).))) next?
Output: -31.1
